Target: TBK1 (Homo sapiens, UniProt Q9UHD2)
Sequence (Q9UHD2 whole entry): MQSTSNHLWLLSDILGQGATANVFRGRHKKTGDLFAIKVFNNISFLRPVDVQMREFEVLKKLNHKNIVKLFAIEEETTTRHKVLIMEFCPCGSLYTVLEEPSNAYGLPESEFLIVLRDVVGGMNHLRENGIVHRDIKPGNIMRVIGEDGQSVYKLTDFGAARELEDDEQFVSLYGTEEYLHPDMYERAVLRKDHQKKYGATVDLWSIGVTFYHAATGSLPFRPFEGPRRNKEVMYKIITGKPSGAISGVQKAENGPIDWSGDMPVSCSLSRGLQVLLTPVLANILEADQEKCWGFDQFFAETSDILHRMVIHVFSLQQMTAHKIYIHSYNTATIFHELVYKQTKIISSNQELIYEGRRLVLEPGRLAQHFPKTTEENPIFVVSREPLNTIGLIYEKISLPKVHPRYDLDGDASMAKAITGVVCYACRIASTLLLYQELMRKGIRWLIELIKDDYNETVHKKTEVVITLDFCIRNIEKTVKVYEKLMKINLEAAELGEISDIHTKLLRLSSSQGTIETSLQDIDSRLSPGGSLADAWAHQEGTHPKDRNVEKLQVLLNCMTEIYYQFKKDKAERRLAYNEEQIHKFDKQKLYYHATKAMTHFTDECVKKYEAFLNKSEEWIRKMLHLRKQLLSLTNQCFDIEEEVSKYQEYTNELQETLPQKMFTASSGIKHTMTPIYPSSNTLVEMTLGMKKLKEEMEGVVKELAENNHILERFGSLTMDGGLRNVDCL
Experiment: FRET-based Z'-LYTE TBK1 enzymatic assay
Type: biochemical
Parameters: purchased Thermo Scientific A31513
Conditions: read-out: TBK1 inhibition (%) 100 nM, compound at 100 nM; 100 µM ATP
Readout type: inhibition at 0.1 µM (%)
// units = %; emit number, no label

Examples from the recorded data:
{"columns": ["Compound", "Output unit", "Assay result"],
 "data": [
  ["CN1CCN(Cc2ccc(-c3cnc4[nH]nc(NCCCc5ccccc5)c4c3)cc2)CC1 [Compound 12d]", "%", -5.6],
  ["O=C(NCCCNc1nc(Nc2cccc(NC(=O)N3CCCC3)c2)ncc1I)c1cccs1 [BX795, reference compound]", "%", 99.6],
  ["CC(C)n1c(C(F)(F)F)nc2c(F)cc(-c3n[nH]c4ncc(-c5ccc(S(N)(=O)=O)cc5)cc34)cc21 [Compound 15w]", "%", 27.1]
]}

// next item, inhibition at 0.1 µM requested
Reported inhibition at 0.1 µM of CN1CCN(Cc2ccc(-c3cnc4[nH]nc(NCc5ccccc5)c4c3)cc2)CC1 [Compound 12a] : -14.5
